# Tested on: GABAA receptors in SPMs
# Format: binding, rat
Decide using nH (Hill slope) for reducing ^125I-MmTX2 binding: a value greater than or equal to 1 is criterion met, a smaller one is criterion not met.

>>> df
                                   molecule     discrete_label
0  CN1C(=O)CN=C(c2ccccc2)c2cc(Cl)ccc21 [diazepam]  criterion not met

From here, focus on the item given below.
**Query** Reported nH (Hill slope) for reducing ^125I-MmTX2 binding reaches at least 1 for NCc1cc(=O)[nH]o1 [muscimol, reference compound] ?
**Result** criterion met

###

Quick reference: EC50 of the listed items.
# Measurement Target: GABAA receptors in SPMs
# Format: binding, rat
# Experimental Setup: sigmoidal dose-response fit; read-out: EC50 for reducing ^125I-MmTX2 binding to SPMs
Write the value in µM as a bare number.

**Query** So what EC50 did NCc1cc(=O)[nH]o1 [muscimol, reference compound] get with GABAA receptors in SPMs?
**Result** 2.1

**Query** So what EC50 did O=C(O)C1=CCNCC1 get with GABAA receptors in SPMs?
**Result** 275

**Query** So what EC50 did CCCC(C)C1(CC)C(=O)NC(=O)NC1=O (stereo not drawn) get with GABAA receptors in SPMs?
**Result** 4.8

###

Quick reference: pEC50 of the listed items.
# Measurement Target: GABAA receptors in SPMs
# Assay type: binding, rat
# Experimental Setup: read-out: EC50 for reducing ^125I-MmTX2 binding to SPMs
# reply with the number alone; pEC50 is -log10 of concentration in mol/L

                                   compound  result_value
0  CN1C(=O)CN=C(c2ccccc2)c2cc(Cl)ccc21 [diazepam]          5.31

We next turn to a different compound, shown below.
**Query** So what pEC50 did COc1ccc(-c2ccc(=N)n(CCCC(=O)O)n2)cc1 [gabazine] get with GABAA receptors in SPMs?
**Result** 6.70

###

Quick reference: nH (Hill slope) for reducing ^125I-MmTX2 binding of the listed items.
# Test system: GABAA receptors in SPMs
# Type: binding, rat
Respond with the number and no other words.

Consider the worked cases shown below.
>>> print(df.to_string())
                                   compound  result_value
0    NCCCC(=O)O [GABA, γ-aminobutyric acid]          0.99
1  CCCC(C)C1(CC)C(=O)NC(=O)NC1=O (stereo not shown) [pentobarbital]          0.98
2  COc1ccc(-c2ccc(=N)n(CCCC(=O)O)n2)cc1 [gabazine]          1.00

We next turn to a different compound, shown below.
**Query** I would be grateful if you could share the reported nH (Hill slope) for reducing ^125I-MmTX2 binding for O=C(O)C1=CCNCC1 [isoguvacine] .
**Result** 1.02
